assay: total protein half-life in vivo (active degradation + dilution); higher = more stable protein
experimentalContext: wild type E. coli NCM3722; growth: C-lim chemostat; doubling time 3 h
Assign total protein half-life in vivo to each entry below.
One number for each entry, in h.

>>> val("MRSKYIVIEGLEGAGKTTARNVVVETLEQLGIRDMVFTREPGGTQLAEKLRSLVLDIKSVGDEVITDKAEVLMFYAARVQLVETVIKPALANGTWVIGDRHDLSTQAYQGGGRGIDQHMLATLRDAVLGDFRPDLTLYLDVTPEVGLKRARARGELDRIEQESFDFFNRTRARYLELAAQDKSIHTIDATQPLEAVMDAIRTTVTHWVKELDA [P0A720]")
3.06

For each entry beneath this line, provide reported total protein half-life in vivo.
1. MSKSDVFHLGLTKNDLQGATLAIVPGDPDRVEKIAALMDKPVKLASHREFTTWRAELDGKPVIVCSTGIGGPSTSIAVEELAQLGIRTFLRIGTTGAIQPHINVGDVLVTTASVRLDGASLHFAPLEFPAVADFECTTALVEAAKSIGATTHVGVTASSDTFYPGQERYDTYSGRVVRHFKGSMEEWQAMGVMNYEMESATLLTMCASQGLRAGMVAGVIVNRTQQEIPNAETMKQTESHAVKIVVEAARRLL
2. MIAELFTNNALNLVIIFGSCAALILMSFWFRRGNRKRKGFLFHAVQFLIYTIIISAVGSIINYVIENYKLKFITPGVIDFICTSLIAVILTIKLFLLINQFEKQQIKKGRDITSARIMSRIIKITIIVVLVLLYGEHFGMSLSGLLTFGGIGGLAVGMAGKDILSNFFSGIMLYFDRPFSIGDWIRSPDRNIEGTVAEIGWRITKITTFDNRPLYVPNSLFSSISVENPGRMTNRRITTTIGLRYEDAAKVGVIVEAVREMLKNHPAIDQRQTLLVYFNQFADSSLNIMVYCFTKTTVWAEWLAAQQDVYLKIIDIVQSHGADFAFPSQTLYMDNITPPEQGR [P0AEB5]

Result:
[3.23, 3.02]

====

Assign total protein half-life in vivo to each entry below.
assay: total protein half-life in vivo (active degradation + dilution); higher = more stable protein
experimentalContext: wild type E. coli NCM3722; growth: C-lim chemostat; doubling time 3 h
Numbers only, in h.

Use these answered entries as a reference point.
>>> val("MTMSLEVFEKLEAKVQQAIDTITLLQMEIEELKEKNNSLSQEVQNAQHQREELERENNHLKEQQNGWQERLQALLGRMEEV [P0AF36]")
2.8
>>> val("MEKLRVGIVFGGKSAEHEVSLQSAKNIVDAIDKSRFDVVLLGIDKQGQWHVSDASNYLLNADDPAHIALRPSATSLAQVPGKHEHQLIDAQNGQPLPTVDVIFPIVHGTLGEDGSLQGMLRVANLPFVGSDVLASAACMDKDVTKRLLRDAGLNIAPFITLTRANRHNISFAEVESKLGLPLFVKPANQGSSVGVSKVTSEEQYAIAVDLAFEFDHKVIVEQGIKGREIECAVLGNDNPQASTCGEIVLTSDFYAYDTKYIDEDGAKVVVPAAIAPEINDKIRAIAVQAYQTLGCAGMARVDVFLTPENEVVINEINTLPGFTNISMYPKLWQASGLGYTDLITRLIELALERHAADNALKTTM [P0A6J8]")
2.99

For the next question, use this sequence.
Request: Quick check: total protein half-life in vivo of MCTTCGCGEGNLYIEGDEHNPHSAFRSAPFAPAARPKMKITGIKAPEFTPSQTEEGDLHYGHGEAGTHAPGMSQRRMLEVEIDVLDKNNRLAERNRARFAARKQLVLNLVSSPGSGKTTLLTETLMRLKDSVPCAVIEGDQQTVNDAARIRATGTPAIQVNTGKGCHLDAQMIADAAPRLPLDDNGILFIENVGNLVCPASFDLGEKHKVAVLSVTEGEDKPLKYPHMFAAASLMLLNKVDLLPYLNFDVEKCIACAREVNPEIEIILISATSGEGMDQWLNWLETQRCA [P0AAN3] ?
Result: 2.29

====

assay: total protein half-life in vivo (active degradation + dilution); higher = more stable protein
experimentalContext: E. coli NCM3722 delta-clpP; growth: N-lim chemostat; doubling time 6 h
recordedEndpoint: total protein half-life in vivo (h)
Answers are plain numbers, in h.

>>> val("MFDIGVNLTSSQFAKDRDDVVACAFDAGVNGLLITGTNLRESQQAQKLARQYSSCWSTAGVHPHDSSQWQAATEEAIIELAAQPEVVAIGECGLDFNRNFSTPEEQERAFVAQLRIAADLNMPVFMHCRDAHERFMTLLEPWLDKLPGAVLHCFTGTREEMQACVAHGIYIGITGWVCDERRGLELRELLPLIPAEKLLIETDAPYLLPRDLTPKPSSRRNEPAHLPHILQRIAHWRGEDAAWLAATTDANVKTLFGIAF")
4.32

For the next question, use this sequence.
Request: Quick check: total protein half-life in vivo of "MKTLIVSTVLAFITFSAQAAAFQVTSNEIKTGEQLTTSHVFSGFGCEGGNTSPSLTWSGVPEGTKSFAVTVYDPDAPTGSGWWHWTVVNIPATVTYLPVDAGRRDGTKLPTGAVQGRNDFGYAGFGGACPPKGDKPHHYQFKVWALKTEKIPVDSNSSGALVGYMLNANKIATAEITPVYEIK" ?
Result: 4.74

====

Assign total protein half-life in vivo to each entry below.
assay: total protein half-life in vivo (active degradation + dilution); higher = more stable protein
experimentalContext: wild type E. coli NCM3722; growth: P-lim chemostat; doubling time 12 h
Answers are plain numbers, in h.

Use these answered entries as a reference point.
>>> val("MNQIFMVIFLVLSGFIVGNVWSDRGWQKKWAERDAAALSQEVNAQFAARIIEQGRTIARDEAVKDAQQKSAEISARAAYLSDSVNQLRAEAKKYAIRLDAAKHTADLAAAVRGKTTKTAEGMLTNMLGDIAAEAQLYAEIADERYIAGVTCQQIYESLRDKKHQM")
9.42
>>> val("MDIIFYHPTFDTQWWIEALRKAIPQARVRAWKSGDNDSADYALVWHPPVEMLAGRDLKAVFALGAGVDSILSKLQAHPEMLNPSVPLFRLEDTGMGEQMQEYAVSQVLHWFRRFDDYRIQQNSSHWQPLPEYHREDFTIGILGAGVLGSKVAQSLQTWRFPLRCWSRTRKSWPGVQSFAGREELSAFLSQCRVLINLLPNTPETVGIINQQLLEKLPDGAYLLNLARGVHVVEDDLLAALDSGKVKGAMLDVFNREPLPPESPLWQHPRVTITPHVAAITRPAEAVEYISRTIAQLEKGERVCGQVDRARGY")
11

For the next question, use this sequence.
Request: Quick check: total protein half-life in vivo of "MTITSLDGYRWLKNDIIRGNFQPDEKLRMSLLTSRYALGVGPLREALSQLVAERLVTVVNQKGYRVASMSEQELLDIFDARANMEAMLVSLAIARGGDEWEADVLAKAHLLSKLEACDASEKMLDEWDLRHQAFHTAIVAGCGSHYLLQMRERLFDLAARYRFIWLRRTVLSVEMLEDKHDQHQTLTAAVLARDTARASELMRQHLLTPIPIIQQAMAGN" ?
Result: 3.14

====

assay: total protein half-life in vivo (active degradation + dilution); higher = more stable protein
experimentalContext: wild type E. coli NCM3722; growth: P-lim chemostat; doubling time 6 h
Assign total protein half-life in vivo to each entry below.
Numbers only, in h.

>>> val("MNQPLLSVNNLTHLYAPGKGFSDVSFDLWPGEVLGIVGESGSGKTTLLKSISARLTPQQGEIHYENRSLYAMSEADRRRLLRTEWGVVHQHPLDGLRRQVSAGGNIGERLMATGARHYGDIRATAQKWLEEVEIPANRIDDLPTTFSGGMQQRLQIARNLVTHPKLVFMDEPTGGLDVSVQARLLDLLRGLVVELNLAVVIVTHDLGVARLLADRLLVMKQGQVVESGLTDRVLDDPHHPYTQLLVSSVLQN")
0.314

For each entry beneath this line, provide reported total protein half-life in vivo.
1. MSITLSDSAAARVNTFLANRGKGFGLRLGVRTSGCSGMAYVLEFVDEPTPEDIVFEDKGVKVVVDGKSLQFLDGTQLDFVKEGLNEGFKFTNPNVKDECGCGESFHV [P0AAC8]
2. MANWLNQLQSLLGQSSSSTSSSADQGLVKLLVPGALGGLAGLLVANKSARKLLTKYGTNALLVGGGAVAGTVLWNKYKDKIRAAHQDEPQFGAQSTPLDERTARLILALVFAAKSDGHIDAKERAAIDQQLRGAGVEEQGRVLIEQAIEQPLDPQRLATGVRNEEEALEIYFLSCAAIDIDHFMERSYLNALGDALKIPQDVRDGIERDLEQQKRTLAE
3. MHPMLNIAVRAARKAGNLIAKNYETPDAVEASQKGSNDFVTNVDKAAEAVIIDTIRKSYPQHTIITEESGELEGTDQDVQWVIDPLDGTTNFIKRLPHFAVSIAVRIKGRTEVAVVYDPMRNELFTATRGQGAQLNGYRLRGSTARDLDGTILATGFPFKAKQYATTYINIVGKLFNECADFRRTGSAALDLAYVAAGRVDGFFEIGLRPWDFAAGELLVREAGGIVSDFTGGHNYMLTGNIVAGNPRVVKAMLANMRDELSDALKR [P0ADG4]

Result:
1. 1.36
2. 3.34
3. 6.06
